Test: Dasatinib single oral gavage plasma pharmacokinetics (NLME modeling)
Format: in vivo, mouse
Conditions: male, C57BL/6, mouse, plasma, oral, 10 mg/kg, GROUP:VD3 Def, SEX:M, OCC 1, time 8; read-out: DV (dasatinib plasma concentration)
property-label: concentration at 8 h (ng/mL)
Give just the numeric value; ng/mL need not be written.

// concentration at 8 h lookup, key: "Cc1nc(Nc2ncc(C(=O)Nc3c(C)cccc3Cl)s2)cc(N2CCN(CCO)CC2)n1"
16.2

---

Assay: Dasatinib single oral gavage plasma pharmacokinetics (NLME modeling)
Assay type: in vivo, mouse
Settings: Base Model
property-label: V1 pop (apparent volume of central compartment) (L/kg)
Only the number, expressed in L/kg, is required.

I am curious: what V1 pop (apparent volume of central compartment) value has been reported for Cc1nc(Nc2ncc(C(=O)Nc3c(C)cccc3Cl)s2)cc(N2CCN(CCO)CC2)n1 [dasatinib] ?
12.7

---

Assay: Repeated discontinuous oral DEX PK study (another 60 mice)
Format: in vivo, mouse
Conditions: female, C57BL/6, mouse, plasma, oral, 8 mg/L, DEX conc, Average ± S.D. of quantifiable samples, plasma; repeated study; VD3 Deficient, F; Day 10.5; n=10
property-label: concentration at 10.5 day (nM)
The answer is to be given in nM; state only the numeric part.

# lookup: concentration at 10.5 day of "C[C@@H]1C[C@H]2[C@@H]3CCC4=CC(=O)C=C[C@]4(C)[C@@]3(F)[C@@H](O)C[C@]2(C)[C@@]1(O)C(=O)CO"
116

---

Assay: Plasma DEX concentrations on discontinuous oral DEX regimen in drinking water (Fig 3)
Type: in vivo, mouse
Settings: male, C57BL/6, mouse, plasma, oral, 8 mg/L, Dexamethasone conc, avg, plasma; male; VD3 sufficient; day 17.5; n=11
property-label: concentration at 17.5 day (nM)
The reply should contain only the number, in nM.

Sample "C[C@@H]1C[C@H]2[C@@H]3CCC4=CC(=O)C=C[C@]4(C)[C@@]3(F)[C@@H](O)C[C@]2(C)[C@@]1(O)C(=O)CO" — what was its concentration at 17.5 day?
13.3

---

Experiment: Plasma DEX concentrations on discontinuous oral DEX regimen in drinking water (Fig 3)
Format: in vivo, mouse
Settings: female, C57BL/6, mouse, plasma, oral, 8 mg/L, Dexamethasone conc, individual mouse; VD3 sufficient (MRE); D10.5
property-label: concentration at 10.5 day
Answer by giving the amount and then stating its unit.

Would you kindly share the measured concentration at 10.5 day for "C[C@@H]1C[C@H]2[C@@H]3CCC4=CC(=O)C=C[C@]4(C)[C@@]3(F)[C@@H](O)C[C@]2(C)[C@@]1(O)C(=O)CO" ?
49.9 nM

---

Test: in vivo
Conditions: female, C57BL/6, mouse, plasma, po, 2 mg/kg
property-label: concentration at 2 h (ng/mL)
Report as a plain number; the unit ng/mL is understood.

Find the recorded concentration at 2 h belonging to C[C@@H]1C[C@H]2[C@@H]3CCC4=CC(=O)C=C[C@]4(C)[C@@]3(F)[C@@H](O)C[C@]2(C)[C@@]1(O)C(=O)CO [DEX, dexamethasone] and report it.
676

---

Test: Dasatinib single oral gavage plasma pharmacokinetics (NLME modeling)
Format: in vivo, mouse
Conditions: Final Model
property-label: V2 pop (L/kg)
Give the number; L/kg is assumed, so skip it.

Entry Cc1nc(Nc2ncc(C(=O)Nc3c(C)cccc3Cl)s2)cc(N2CCN(CCO)CC2)n1 [dasatinib] has what V2 pop?
11.2
